target desc: recombinant human glucagon receptor (Homo sapiens, UniProt P47871)
Sequence (P47871 26-477): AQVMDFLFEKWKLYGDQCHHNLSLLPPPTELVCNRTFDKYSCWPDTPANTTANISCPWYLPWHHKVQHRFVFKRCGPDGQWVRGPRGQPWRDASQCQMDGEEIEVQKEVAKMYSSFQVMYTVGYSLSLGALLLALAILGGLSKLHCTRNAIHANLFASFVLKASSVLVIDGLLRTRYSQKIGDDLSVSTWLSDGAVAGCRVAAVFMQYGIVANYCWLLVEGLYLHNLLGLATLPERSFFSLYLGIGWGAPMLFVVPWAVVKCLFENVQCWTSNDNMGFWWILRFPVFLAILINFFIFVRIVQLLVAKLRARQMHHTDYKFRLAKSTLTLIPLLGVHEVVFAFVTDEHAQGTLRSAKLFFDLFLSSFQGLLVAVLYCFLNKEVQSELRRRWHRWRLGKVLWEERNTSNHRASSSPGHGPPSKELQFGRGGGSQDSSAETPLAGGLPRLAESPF
assay info: Inhibition of glucagon-stimulated intracellular cAMP assay
condition info: CHO cells expressing recombinant human glucagon receptor, stimulated with 300 pM glucagon, LANCE cAMP kit
Listed next: entries and their corresponding IC50.
measured parameter: IC50 (nM)

INSERT INTO results (compound, target_desc, unit_text, meas_value) VALUES
  ('CC(C)(C)CC[C@H](c1ccc(C(=O)NCCC(=O)O)cc1)N1C(=O)C(c2cccc(F)c2)=NC12CCC([Si](C)(C)C)CC2 (some centres unmarked)', 'recombinant human glucagon receptor (Homo sapiens, UniProt P47871)', 'nM', 61),
  ('CC(C)(C)CCOc1cccc(C2=NC3(CCC(C(C)(C)C)CC3)N([C@H](CCC(C)(C)C)c3ccc(C(=O)NCc4nn[nH]n4)cc3)C2=O)c1 (some centres unmarked)', 'recombinant human glucagon receptor (Homo sapiens, UniProt P47871)', 'nM', 22);
